biological target: recombinant human 11β-HSD1 (Homo sapiens); construct: The gene encoding 11β-HSD1 (Genebank: NC_018912.2) was cloned into the pET-28a vector (Novagen); hexa-histidine (C, cleaved yes); assay: Binding affinity assay using microscale thermophoresis (MST); details: labelled 11β-HSD1 50 nM, 22 °C, means ± SD for three experiments, read-out: Kd (dissociation constant with 11β-HSD1)
Parameter pKd: see the listing below.
Please express pKd as -log10 of the molar concentration.

Known pKd results, listed for orientation:
molecule	readout	reported-result
CN1C(=O)c2ccccc2NC(=O)C12OC2c1cccc(O)c1 (single isomer, unassigned; (+)) [Compound 5, (+)-cyclopenol]	pKd	3.38
CN1C(=O)c2ccccc2NC(=O)C12OC2c1ccccc1 (stereo not drawn) [Compound 6, cyclopenin]	pKd	3.29

Item: CN1C(=O)c2ccccc2NC(=O)[C@@H](Cc2ccccc2)N(C)C(=O)c2ccccc2NC(=O)[C@H]1Cc1ccccc1 [Compound 3, Penicopeptide A] Test system: recombinant human 11β-HSD1 (Homo sapiens) Read-out: pKd Value: ?
4.09

###

molecular target: recombinant human 11β-HSD1 (Homo sapiens, UniProt P28845); construct: The gene encoding 11β-HSD1 (Genebank: NC_018912.2) was cloned into the pET-28a vector (Novagen); hexa-histidine (C, cleaved yes); assay: 11β-HSD1 enzyme inhibition assay (cortisone to cortisol, HPLC-MS/MS); settings: cortisone 50 μM, NADPH 1 mM, 37 °C, 30 min, read-out: IC50 (inhibitory activities against 11β-HSD1)
Sequence (P28845 whole entry): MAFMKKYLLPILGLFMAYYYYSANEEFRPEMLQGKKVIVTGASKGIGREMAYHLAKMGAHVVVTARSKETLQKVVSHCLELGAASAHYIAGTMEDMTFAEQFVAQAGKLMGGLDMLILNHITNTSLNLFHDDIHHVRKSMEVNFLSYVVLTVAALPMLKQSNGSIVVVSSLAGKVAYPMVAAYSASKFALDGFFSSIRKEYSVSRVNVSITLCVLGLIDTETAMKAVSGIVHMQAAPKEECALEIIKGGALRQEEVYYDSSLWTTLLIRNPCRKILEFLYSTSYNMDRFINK
pIC50: −log10 of the molar value.
Listed below: pIC50 values for each entry.

Worked set:
compound	target-or-test-system	pIC50
CN1C(=O)c2ccccc2NC(=O)/C1=C/c1ccccc1 [Compound 4]	recombinant human 11β-HSD1 (Homo sapiens, UniProt P28845)	< 3.70
CC(=O)c1cc(C)c(O)c(C[C@]23Cc4c(O)c(C(C)=O)cc(C)c4O[C@@]2(O)[C@@H](C)OC3=O)c1O [Compound 8, penilactones A]	recombinant human 11β-HSD1 (Homo sapiens, UniProt P28845)	< 3.70

Value wanted: pIC50 (recombinant human 11β-HSD1 (Homo sapiens, UniProt P28845)) of entry CN1C(=O)c2ccccc2NC(=O)[C@@H](Cc2ccccc2)N(C)C(=O)c2ccccc2NC(=O)[C@H]1Cc1ccccc1 [Compound 3, Penicopeptide A]
5.04

Lab request: please report pIC50 under test system recombinant human 11β-HSD1 (Homo sapiens, UniProt P28845) for CC(=O)c1cc(C)c2c(c1O)C[C@H](C)[C@@]1(C[C@@H](O)C[C@@H](C)O1)O2 [Compound 1, Penicophenone A]
< 3.70

###

biological target: recombinant human 11β-HSD1 (Homo sapiens, UniProt P28845); construct: The gene encoding 11β-HSD1 (Genebank: NC_018912.2) was cloned into the pET-28a vector (Novagen); hexa-histidine (C, cleaved yes); assay: 11β-HSD1 enzyme inhibition assay (cortisone to cortisol, HPLC-MS/MS); conditions: cortisone 50 μM, NADPH 1 mM, 37 °C, 30 min, read-out: IC50 (inhibitory activities against 11β-HSD1)
readout: IC50

Some solved entries appear below for comparison.
compound	IC50
CC(C)=CCC[C@]1(C)[C@@H](O)CC[C@@]2(C)[C@H]1CC[C@H]1Cc3c([nH]c4ccccc34)[C@@]12C	> 200 µM
CN1C(=O)c2ccccc2NC(=O)C12OC2c1cccc(O)c1 (single isomer, unassigned; (+)) [Compound 5, (+)-cyclopenol]	45.5 µM

Moving on to the next compound.
// IC50 lookup, key: `COc1cc(Cc2c(O)c(C)cc(C(C)=O)c2O)c(OC)cc1O`
> 200 µM
